System: kochia (Kochia scoparia)
Experiment: Test A preemergence, kochia
Assay type: in vivo
Conditions: 31 g ai/ha, approximately 10 d
Reported Endpoint: Plant response rating (0 to 100 scale, 0 is no effect, 100 is complete control)

Take a look at these entries with their results.
- Compound: "CN1C[C@H](c2ccc(C(F)(F)F)cc2)[C@@H](C(=O)Nc2cccc(F)c2F)C1=NNC(=O)OC(C)(C)C (relative stereo)"
  Data Value: 20
- Compound: "CN1C[C@H](c2ccc(C(F)(F)F)cc2)[C@@H](C(=O)Nc2cccc(F)c2F)C1=NN1CCOCC1 (relative stereo)"
  Data Value: 0

q: For the compound CN1C[C@H](c2ccc(C(F)(F)F)cc2)[C@@H](C(=O)Nc2cccc(F)c2F)C1=NN , what Plant response rating (0 to 100 scale, 0 is no effect, 100 is complete control) is on record?
a: 0

q: For the compound CNN=C1[C@H](C(=O)Nc2cccc(F)c2F)[C@@H](c2ccc(C(F)(F)F)cc2)CN1C (relative stereo) , what Plant response rating (0 to 100 scale, 0 is no effect, 100 is complete control) is on record?
a: 0
